TESTED SYSTEM: AktK (Homo sapiens, UniProt P31749)
Sequence (P31749 whole entry): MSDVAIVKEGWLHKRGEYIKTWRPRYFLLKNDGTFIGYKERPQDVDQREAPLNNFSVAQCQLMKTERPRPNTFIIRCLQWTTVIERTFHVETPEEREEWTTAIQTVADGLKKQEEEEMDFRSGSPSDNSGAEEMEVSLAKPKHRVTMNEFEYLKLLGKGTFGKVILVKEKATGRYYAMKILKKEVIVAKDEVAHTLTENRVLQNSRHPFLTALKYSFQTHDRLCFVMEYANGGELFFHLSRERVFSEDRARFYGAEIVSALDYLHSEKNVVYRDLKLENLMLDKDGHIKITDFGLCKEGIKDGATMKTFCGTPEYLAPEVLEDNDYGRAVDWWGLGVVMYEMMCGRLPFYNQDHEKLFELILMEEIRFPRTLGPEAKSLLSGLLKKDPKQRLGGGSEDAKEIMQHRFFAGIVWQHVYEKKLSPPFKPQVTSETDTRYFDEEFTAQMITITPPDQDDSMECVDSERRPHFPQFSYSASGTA
PROTOCOL NOTES: Luciferase-coupled chemiluminescence kinase assay (ATP consumption)
Format: biochemical
STUDY CONDITIONS: Table 1; class symbols per key; read-out: AKT-1 IC50
Procedure: One measure of inhibition is Ki. […] The Ki for a compound is determined from the IC50 based on three assumptions. First, only one compound molecule binds to the enzyme and there is no cooperativity. […] Kinase activity is measured as the percent of ATP consumed following the kinase reaction using luciferase-luciferin-coupled chemiluminescence. […] Total ATP consumption was limited to 25-60% and the IC50 values correlate well with those determined by radiometric assays.
pIC50: −log10 of the molar value.
PROPERTY NAME: pIC50

INSERT INTO results (molecule, value) VALUES
  ('CCNC(=O)COc1cccc(N2CCN(c3ncnc4[nH]nc(Br)c34)CC2)c1 [Entry 139]', '5.00 to 6.00'),
  ('N#Cc1nccnc1N1CCN(c2ncnc3[nH]nc(Br)c23)CC1 [Entry 110]', '≤ 5.00'),
  ('Cc1c(NCCN(C)C)cc(OCC(C)(C)F)cc1N1CCN(c2ncnc3[nH]nc(Br)c23)CC1 [Entry 226]', '> 7.00'),
  ('CCc1n[nH]c2ncnc(N3CCN(c4cc(Cl)cc(N(C)CCN(C)C)c4C)CC3)c12 [Entry 82]', '5.00 to 6.00'),
  ('CCCOc1cc(NCCN2CCCC2)c(C)c(N2CCN(c3ncnc4[nH]nc(Br)c34)CC2)c1 [Entry 224]', '> 7.00'),
  ('N#Cc1ccc(N2CCN(c3ncnc4[nH]nc(Br)c34)CC2)cc1 [Entry 123]', '≤ 5.00'),
  ('Cc1ccc(-c2cccc(F)c2OCCN2CCCC2)cc1N1CCN(c2ncnc3[nH]nc(Br)c23)CC1 [Entry 282]', '> 7.00'),
  ('Cc1c(NCCN2CCCC2)cc(OCC(F)(F)F)cc1N1CCN(c2ncnc3[nH]nc(Br)c23)CC1 [Entry 285]', '> 7.00'),
  ('CCc1n[nH]c2ncnc(N3CCN(c4ccccc4)CC3)c12 [Entry 98]', '≤ 5.00'),
  ('Cc1ccc(C(=O)Nc2ccccc2)cc1N1CCN(c2ncnc3[nH]nc(Br)c23)CC1=O [Entry 199]', '5.00 to 6.00'),
  ('Cc1c(OCC2CCN(C)CC2)cc(Cl)cc1N1CCN(c2ncnc3[nH]nc(C(F)(F)F)c23)CC1 [Entry 90]', '6.00 to 7.00'),
  ('COc1cc(OC)cc(N2CCN(c3ncnc4[nH]nc(Br)c34)CC2)c1 [Entry 80]', '5.00 to 6.00'),
  ('Cc1c(NCCN2CCCC2)cc(OCC(C)C)cc1N1CCN(c2ncnc3[nH]nc(Br)c23)CC1 [Entry 184]', '> 7.00'),
  ('Cc1ccc(C(=O)N(C)C)cc1N1CCN(c2ncnc3[nH]nc(Br)c23)CC1 [Entry 196]', '6.00 to 7.00'),
  ('Cc1c(NCCN2CCCC2)cc(CC[Si](C)(C)C)cc1N1CCN(c2ncnc3[nH]nc(Br)c23)CC1 [Entry 246]', '> 7.00'),
  ('CCc1n[nH]c2ncnc(N3CCN(c4nc(C)cnc4C)CC3)c12 [Entry 101]', '≤ 5.00'),
  ('CCc1n[nH]c2ncnc(N3CCN(c4cc(F)cc(NCCN5CCCC5)c4C)CC3)c12 [Entry 78]', '5.00 to 6.00'),
  ('Cc1c(CCCN2CCCCC2)cc(Cl)cc1N1CCN(c2ncnc3[nH]nc(Br)c23)CC1 [Entry 27]', '> 7.00'),
  ('Brc1n[nH]c2ncnc(N3CCN(c4ncccn4)CC3)c12 [Entry 108]', '≤ 5.00'),
  ('CCOc1ccc(N2CCN(c3ncnc4[nH]nc(Br)c34)CC2)cc1 [Entry 104]', '≤ 5.00'),
  ('CCc1n[nH]c2ncnc(N3CCN(c4nc(C)cc(C)n4)CC3)c12 [Entry 111]', '≤ 5.00');

====

TESTED SYSTEM: p70S6K (Homo sapiens, UniProt P23443)
Sequence (P23443 whole entry): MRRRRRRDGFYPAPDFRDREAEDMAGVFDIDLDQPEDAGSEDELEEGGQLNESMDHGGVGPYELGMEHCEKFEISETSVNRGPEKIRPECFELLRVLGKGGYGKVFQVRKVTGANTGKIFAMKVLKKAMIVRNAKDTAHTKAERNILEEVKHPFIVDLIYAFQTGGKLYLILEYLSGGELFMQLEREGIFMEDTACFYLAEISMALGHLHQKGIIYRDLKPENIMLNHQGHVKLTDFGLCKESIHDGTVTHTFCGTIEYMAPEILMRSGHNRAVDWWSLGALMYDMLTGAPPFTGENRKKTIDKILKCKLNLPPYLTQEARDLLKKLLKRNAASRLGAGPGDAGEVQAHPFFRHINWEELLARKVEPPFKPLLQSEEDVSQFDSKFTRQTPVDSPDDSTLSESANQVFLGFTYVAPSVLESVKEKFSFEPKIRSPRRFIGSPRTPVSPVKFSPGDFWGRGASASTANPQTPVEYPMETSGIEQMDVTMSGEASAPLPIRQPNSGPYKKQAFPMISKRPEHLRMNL
PROTOCOL NOTES: Luciferase-coupled chemiluminescence kinase assay (ATP consumption)
Type: biochemical
Description: One measure of inhibition is Ki. […] The Ki for a compound is determined from the IC50 based on three assumptions. First, only one compound molecule binds to the enzyme and there is no cooperativity. […] Kinase activity is measured as the percent of ATP consumed following the kinase reaction using luciferase-luciferin-coupled chemiluminescence. […] Total ATP consumption was limited to 25-60% and the IC50 values correlate well with those determined by radiometric assays.
pIC50: −log10 of the molar value.
PROPERTY NAME: pIC50

INSERT INTO measurements (compound_string, value) VALUES
  ('Fc1ccc(N2CCN(c3ncnc4[nH]cnc34)CC2)cc1', '5.00 to 6.00'),
  ('CCc1n[nH]c2ncnc(N3CCN(c4cc(Cl)cc(C(=O)OCCN(C)C)c4OC)CC3)c12', '> 7.00'),
  ('Clc1ccccc1N1CCN(c2ncnc3[nH]ccc23)CC1', '6.00 to 7.00'),
  ('Cc1ccc(Cl)cc1N1CCN(c2ncnc3[nH]nc(-c4cccc(C(=O)O)c4)c23)CC1', '5.00 to 6.00'),
  ('CCc1n[nH]c2ncnc(N3CCN(c4cc(Cl)c(OC)cc4C)CC3)c12', '> 7.00'),
  ('Cc1ccc(Cl)cc1N1CCN(c2ncnc3[nH]nc(CCC(=O)O)c23)CC1', '> 7.00');

====

TESTED SYSTEM: p70S6K (Homo sapiens, UniProt P23443)
PROTOCOL NOTES: Luciferase-coupled chemiluminescence kinase assay (ATP consumption)
Type: biochemical
PROPERTY NAME: IC50

INSERT INTO assay_data (compound, value) VALUES
  ('COc1ccc(N2CCN(c3ncnc4[nH]cnc34)CC2)cc1', '1 to 10 µM'),
  ('FC(F)(F)c1cccc(N2CCN(c3ncnc4[nH]ccc34)CC2)c1', '0.1 to 1 µM'),
  ('CCc1n[nH]c2ncnc(N3CCN(c4cccc(Cl)c4)C(C(=O)NC4CCN(C)CC4)C3)c12 (stereo not drawn)', '1 to 10 µM');

====

TESTED SYSTEM: p70S6K (Homo sapiens, UniProt P23443)
PROTOCOL NOTES: Luciferase-coupled chemiluminescence kinase assay (ATP consumption)
Assay type: biochemical
STUDY CONDITIONS: Table 1; class symbols per key
PROPERTY NAME: IC50

INSERT INTO measurements (compound, value) VALUES
  ('CCc1n[nH]c2ncnc(N3CCN(c4cc(Cl)cc(N(C)CCN(C)C)c4C)CC3)c12 [Entry 82]', '< 100 nM'),
  ('Cn1c(CCCO)nc2c(N3CCN(c4ncnc5[nH]nc(Br)c45)CC3)cc(C(F)(F)F)cc21 [Entry 273]', '< 100 nM'),
  ('CCOC(=O)c1cnc(C(F)(F)F)nc1N1CCN(c2ncnc3[nH]nc(CC)c23)CC1 [Entry 112]', '1000 to 10000 nM'),
  ('CCc1n[nH]c2ncnc(N3CCN(c4cc(Cl)cc(OCCCN5CCN(C)CC5)c4C)CC3)c12 [Entry 36]', '< 100 nM');

====

TESTED SYSTEM: AktK (Homo sapiens)
PROTOCOL NOTES: Luciferase-coupled chemiluminescence kinase assay (ATP consumption)
Format: biochemical
STUDY CONDITIONS: read-out: AKT-1 IC50
PROPERTY NAME: IC50

INSERT INTO assay_data (compound, tested_system, value) VALUES
  ('CCc1n[nH]c2ncnc(N3CCN(c4ccc(OCCN5CCCCC5)c(Cl)c4)CC3)c12 [Entry 350]', 'AktK (Homo sapiens)', '≥ 10 µM'),
  ('CCc1n[nH]c2ncnc(N3CCN(c4ccc(OCCN5CCOCC5)c(Cl)c4)CC3)c12 [Entry 345]', 'AktK (Homo sapiens)', '≥ 10 µM'),
  ('Cc1c(NCCN2CCCC2)cc(OCC(F)(CF)CF)cc1N1CCN(c2ncnc3[nH]nc(/C=C/C(=O)O)c23)CC1 [Entry 291]', 'AktK (Homo sapiens)', '< 0.1 µM'),
  ('Cc1ccc(Cl)cc1N1CCN(c2ncnc3[nH]nc(N4CCN(C)CC4)c23)CC1 [Entry 391]', 'AktK (Homo sapiens)', '1 to 10 µM'),
  ('CCc1n[nH]c2ncnc(N3CCN(c4cccc(Cl)c4)C(C(=O)NC4CCN(C)CC4)C3)c12 (stereo not shown) [Entry 382]', 'AktK (Homo sapiens)', '≥ 10 µM'),
  ('Cc1ccc(Cl)cc1N1CCN(c2ncnc3[nH]nc(/C=C/C(=O)OC(C)(C)C)c23)CC1 [Entry 387]', 'AktK (Homo sapiens)', '1 to 10 µM'),
  ('Cc1ccc(Cl)cc1N1CCN(c2ncnc3[nH]nc(-c4ccc(Oc5ccccc5)cc4)c23)CC1 [Entry 358]', 'AktK (Homo sapiens)', '1 to 10 µM');
